// data source = PubChem BioAssay AID179

System: CEM cells HIV-1 protection, formazan growth assay
Test: NCI AIDS Antiviral Assay
Details: measured here: growth of uninfected CEM cells
attribute-measured: IC50 (µM)
One number for each entry, in µM.

# count of solved cases: 5
>>> experimental_result("O=C1CCCN1CC#CCN1C[C@@H]2C3CCC(C3)[C@@H]2C1")
170
>>> experimental_result("Cc1ccc(S(=O)(=O)N(C)c2ccccc2)cc1")
52.5
>>> experimental_result("CC1C[C@@H]2OC(=O)C(C)[C@H]2C[C@]2(C)C(O)CC(O)C12 (stereo partly specified)")
47.9
>>> experimental_result("CCOc1ncn(-c2ccc(NC(=S)Nc3ncccn3)cc2)n1")
95.5
>>> experimental_result("COC(=O)NC1C(C)OC(OC2C/C=C(/C)C3C=CC4C(OC5CC(OC6CC(O)C(OC7CC(O)C(OC)C(C)O7)C(C)O6)C(O)C(C)O5)C(C)CC(C)C4C3(C)/C(O)=C3\\C(=O)OC4(CC(C)C(CO)=CC4/C=C\\2C)C3=O)CC1(C)[N+](=O)[O-] (stereo unspecified)")
4.79

Would you be so kind as to report IC50 for each listed record?
1. O=C1C(=Cc2ccco2)C(=O)C2CCCCC12 (stereo unspecified)
2. COc1ccc([C@H]2CC(=O)C[C@H](c3ccc(OC)cc3)C23C(=O)c2ccccc2C3=O)cc1
3. COc1ccc(-c2nnc3c4ccccc4sn23)cc1
4. Cc1oc2c(c(=O)c1C)CN(Cc1ccccc1)CC2
5. Cc1nnc2sc(NN)nn12
6. COC(=O)c1cc(C#N)[nH]c1-c1ccc(Br)s1

Reply:
166
2.63
22.4
275
107
4.37

Query: Which IC50 is reported for this molecule? CCCCCCCCCCCCCCCC(O)S(=O)(=O)O (stereo unspecified)
Reply: 15.1

====

Test system: CEM cells HIV-1 protection, formazan growth assay
Assay: NCI AIDS Antiviral Assay;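 active = compounds giving half or more protection of infected cells from virus-caused growth loss, again on retest; inactive = the rest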
Outcomes you can answer with include only these: t for active, f for inactive

Query: Outcome? CCC12C=CCN3CCC4(C(=C(C(=O)OC)C1)Nc1ccccc14)[C@H]32 (stereo partly specified)
Reply: f

Query: Record: `COC1=NC2=NCCN2C(OC)=N1`
Reply: f

====

System: CEM cells HIV-1 protection, formazan growth assay
Experiment: NCI AIDS Antiviral Assay;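 active = compounds giving half or more protection of infected cells from virus-caused growth loss, again on retest; inactive = the rest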
Outcomes you can answer with include only these: 1.0 = active, 0.0 = inactive

>>> assigned_category("CCN(CC)C(=S)SS(=O)(=O)c1cccc(N)c1")
0.0

Query: Outcome? C=CCCC12CCCC(=O)C1Sc1ccc3ccccc3c12 (centres undefined)
Reply: 0.0

Query: Record: `O=c1cc(-c2ccccc2)[nH]c2nccn12`
Reply: 0.0

Query: Record: `O=S1(=O)CC(c2ccccc2)(c2ccccc2)Nc2ccccc21`
Reply: 0.0

Query: Record: `COc1ccc(-c2cc(-c3ccco3)c(C#N)c(=O)[nH]2)cc1`
Reply: 0.0

Query: Record: NC(CSCCSCCSCC(N)C(=O)O)C(=O)O (centres undefined)
Reply: 0.0

Query: Record: `COc1c2cc(C(C)(C)C)cc1CSCc1cc(C(C)(C)C)cc(c1OC)CCCCC2`
Reply: 0.0

====

Assignment: determine reported IC50 for the given molecules.
Test system: CEM cells HIV-1 protection, formazan growth assay
Test: NCI AIDS Antiviral Assay
Details: measured here: growth of uninfected CEM cells
Protocol: The ability of compounds to protect human CEM cells from HIV-1 infection is measured as a screen for new compounds capable of inhibiting the HIV virus. Five concentrations of drug were tested on uninfected and infected cells and cell growth was measured using a soluble formazan assay. […] Compounds that provided at least 50% protection were retested. Compounds that provided at least 50% protection on retest were listed as moderately active. […]

# count of solved cases: 3
>>> experimental_result("COc1ccccc1-n1c(N)c2c(C)c(-c3ccccc3)[nH]c2nc1=S")
"38 µM"
>>> experimental_result("O=C(Nc1ccc(Br)cc1)C(=O)C(C(=O)c1ccccc1F)C1OC(=O)c2ccccc21 (stereo not given)")
"35.5 µM"
>>> experimental_result("O=C(Nc1ccc(Cl)cc1)C(=O)Nc1ccc(Cl)cc1")
"> 200 µM"

Would you be so kind as to report IC50 for each listed record?
1. Clc1c2ccccc2[se][n+]1-c1ccccc1
2. CN(C)c1ccc(/C=C2\C(=O)Nc3ccccc32)cc1

Reply:
["11.2 µM", "> 10.2 µM"]

Would you be so kind as to report IC50 for each listed record?
1. Cc1cccnc1NC(=S)Nc1ccccc1Cl
2. C[N+]12CCCCC1CC2 (stereo not given)
3. COc1ccc(-n2c(Cn3nnc(-c4cccnc4)n3)nn(C3OC(COC(=O)c4ccccc4)C(OC(=O)c4ccccc4)C3OC(=O)c3ccccc3)c2=S)cc1 (stereo not given)
4. COCC(=O)C1CC[C@@H]2[C@H](CC[C@]3(C)[C@@H](OC(C)=O)CC[C@@H]23)[C@H]1C(=O)OC (stereo not given in full)
5. CC(C)N(C(=O)C12C3C4C1C1C2C3C41C(N)=O)C(C)C (stereo not given)

Reply:
1: 0.813 µM; 2: 355 µM; 3: > 100 µM; 4: > 50.1 µM; 5: > 912 µM
